# Assay Text: Cytotoxicity against human 1BR3 cells assessed as cell viability at 20 uM after 24 hrs by MTT assay
# Type: cell-based
# Condition Parameters: read-out: Activity
Property Label: viability at 24 h, 20 µM (%)
Give your result in % as a bare value.

Problem: Assign viability at 24 h, 20 µM to the following record: CCCCOC(=O)/C=C/c1c2ccoc2c(OC)c2oc(=O)ccc12
Result: 99.6

Problem: Determine from records and report viability at 24 h, 20 µM for COc1c2ccoc2cc2oc(=O)ccc12 [BERGAPTEN]
Result: 99.4

Problem: Please give measured viability at 24 h, 20 µM of the following entry: COc1c2occc2cc2ccc(=O)oc12 [METHOXSALEN]
Result: 96.7

Problem: Annotate the molecule O=c1ccc2c(O)c3ccoc3c(Br)c2o1 with its measured viability at 24 h, 20 µM.
Result: 95.2

Problem: Return value of viability at 24 h, 20 µM for input COc1c2ccoc2c(-c2ccc(/C=C/C(=O)O)cc2)c2oc(=O)ccc12 , no commentary.
Result: 24.7

Problem: Supply recorded viability at 24 h, 20 µM for Cc1oc2c(C)c3oc(=O)cc(C)c3cc2c1/C=C/C(=O)OC(C)(C)C here.
Result: 37

Problem: Annotate the molecule Cc1cc2cc3c(C)cc(=O)oc3c(C)c2o1 [TRIOXSALEN] with its measured viability at 24 h, 20 µM.
Result: 95.2

Problem: Name the recorded viability at 24 h, 20 µM of the molecule listed here: COc1c2occc2c(-c2ccc(/C=C/C(=O)OC(C)(C)C)cc2)c2ccc(=O)oc12
Result: 67.9

###

# Assay Text: Cytotoxicity against human 1BR3 cells assessed as cell viability at 1 uM after 24 hrs by MTT assay
# Assay type: cell-based
# Condition Parameters: read-out: Activity
Property Label: viability at 24 h, 1 µM (%)
Please respond with the number in % and leave the unit unwritten.

Problem: Identify measured viability at 24 h, 1 µM associated with Cc1cc2cc3c(C)cc(=O)oc3c(C)c2o1
Result: 107

Problem: Entry O=c1ccc2c(O)c3ccoc3c(Br)c2o1 needs its viability at 24 h, 1 µM filled in; supply it.
Result: 97

Problem: For CCCCOC(=O)/C=C/c1c2ccoc2c(OC)c2oc(=O)ccc12 , write its viability at 24 h, 1 µM.
Result: 96.7

###

# Assay Text: Cytotoxicity against human 1BR3 cells assessed as cell viability at 10 uM after 24 hrs by MTT assay
# Assay type: cell-based
# Condition Parameters: read-out: Activity
Property Label: viability at 24 h, 10 µM (%)
Form entry: value (%) — number only.

Problem: Write down viability at 24 h, 10 µM measured for item COc1c2ccoc2cc2oc(=O)ccc12 [BERGAPTEN]
Result: 102

Problem: Give a short answer stating reported viability at 24 h, 10 µM for CCCCOC(=O)/C=C/c1c2ccoc2c(OC)c2oc(=O)ccc12 .
Result: 99.3

Problem: Note viability at 24 h, 10 µM for the molecule shown: Cc1oc2c(C)c3oc(=O)cc(C)c3cc2c1/C=C/C(=O)OC(C)(C)C
Result: 55.6

Problem: Provide viability at 24 h, 10 µM value for the following molecule: COc1c2occc2c(-c2ccc(/C=C/C(=O)OC(C)(C)C)cc2)c2ccc(=O)oc12
Result: 74.1

Problem: In one line, give reported viability at 24 h, 10 µM of the entry O=c1ccc2c(O)c3ccoc3c(Br)c2o1 .
Result: 92.8

Problem: Given Cc1cc2cc3c(C)cc(=O)oc3c(C)c2o1 [TRIOXSALEN] , respond with its viability at 24 h, 10 µM.
Result: 96.7

Problem: Supply measured viability at 24 h, 10 µM of COc1c2ccoc2c(-c2ccc(/C=C/C(=O)O)cc2)c2oc(=O)ccc12 in your reply.
Result: 55.6

Problem: Using known records, supply viability at 24 h, 10 µM for COc1c2occc2cc2ccc(=O)oc12 [METHOXSALEN]
Result: 98.1
